# TEST TARGET: T1, KDR (1-3) (UniProt P35968 20-327, limits assumed)
# T1 construct: domain: domains 1 to 3; Genentech reagent; also called KDR (1-3) monomer; domains 1 to 3 of KDR
# T1 sequence (P35968 20-327 limits assumed): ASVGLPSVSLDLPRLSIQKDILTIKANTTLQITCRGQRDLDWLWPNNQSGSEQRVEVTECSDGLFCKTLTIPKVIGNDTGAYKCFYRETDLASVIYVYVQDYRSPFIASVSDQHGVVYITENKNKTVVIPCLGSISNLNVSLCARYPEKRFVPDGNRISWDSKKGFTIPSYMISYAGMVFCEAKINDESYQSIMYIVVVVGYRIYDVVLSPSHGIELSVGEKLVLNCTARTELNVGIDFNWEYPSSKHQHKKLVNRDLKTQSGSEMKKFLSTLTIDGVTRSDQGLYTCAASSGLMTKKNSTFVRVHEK
# EXPERIMENT NOTES: competition ELISA vs biotinylated native VEGF (8-109) for KDR (1-3)
# relative binding affinity (ratio to native VEGF (8-109)) annotations

Example cases with answers are listed next.
LK-VRB-14s (ligand, human, UniProt P15692-4 27-135, looked up) APMAEGGGQNHHEVVKFMDVLRRSYCHPIETLVDIFQEYPDEIEYIFKPSCVPLMRCGGCCNSEMRECVPTEESNITMQIMRIKPHQGQHIGEMSFLQHNKCECRPKKD: 0.5 ratio
LK-VRB-20s (ligand, human, UniProt P15692-4 27-135, looked up) APMAEGGGQNHHEVVKFMDVLRRSSCHPIETLVDIFQEYPDEIEYIFKPSCVPLMRCGGCCNSEMRECVPTEESNITMQIMRIKPHQGQHIGEMSFLQHNKCECRPKKD: 2 ratio
LK-VRB-12s (ligand, human, UniProt P15692-4 27-135, looked up) APMAEGGGQNHHEVVKFEDVYRRSYCHPIETLVDIFQEYPDEIEYIFKPSCVPLMRCGGCCNSEMRECVPTEESNITMQIMRIKPHQGQHIGEMSFLQHNKCECRPKKD: 0.4 ratio

Task: Given the entry LK-VRB-18s (ligand) APMAEGGGQNHHEVVKFEDVLQRSSCHPIETLVDIFQEYPDEIEYIFKPSCVPLMRCGGCCNSEMRECVPTEESNITMQIMRIKPHQGQHIGEMSFLQHNKCECRPKKD , report its measured relative binding affinity (ratio to native VEGF (8-109)).
Output: 130 ratio

Task: Given the entry LK-VRB-19s (ligand, human, UniProt P15692-4 27-135, looked up, one of the two is probably misprinted) APMAEGGGQNHHEVVKFEDVYRRSSCHPIETLVDIFQEYPDEIEYIFKPSCVPLMRCGGCCNSEMRECVPTEESNITMQIMRIKPHQGQHIGEMSFLQHNKCECRPKKD , report its measured relative binding affinity (ratio to native VEGF (8-109)).
Output: 7 ratio

Task: Given the entry LK-VRB-7s* (ligand, human, UniProt P15692-4 27-135, looked up) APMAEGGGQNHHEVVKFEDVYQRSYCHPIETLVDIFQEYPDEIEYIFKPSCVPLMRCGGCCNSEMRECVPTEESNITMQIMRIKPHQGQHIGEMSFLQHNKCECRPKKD , report its measured relative binding affinity (ratio to native VEGF (8-109)).
Output: 1 ratio

Task: Given the entry LK-VRB-15s (ligand, human, UniProt P15692-4 27-135, looked up) APMAEGGGQNHHEVVKFMDVLQRSSCHPIETLVDIFQEYPDEIEYIFKPSCVPLMRCGGCCNSEMRECVPTEESNITMQIMRIKPHQGQHIGEMSFLQHNKCECRPKKD , report its measured relative binding affinity (ratio to native VEGF (8-109)).
Output: 2 ratio

Task: Given the entry LK-VRB-8s* (ligand) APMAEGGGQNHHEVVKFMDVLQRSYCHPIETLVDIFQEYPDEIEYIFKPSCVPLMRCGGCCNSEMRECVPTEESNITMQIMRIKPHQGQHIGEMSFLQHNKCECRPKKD , report its measured relative binding affinity (ratio to native VEGF (8-109)).
Output: 0.5 ratio

Task: Given the entry LK-VRB-3s (ligand, human, UniProt P15692-4 27-135, looked up) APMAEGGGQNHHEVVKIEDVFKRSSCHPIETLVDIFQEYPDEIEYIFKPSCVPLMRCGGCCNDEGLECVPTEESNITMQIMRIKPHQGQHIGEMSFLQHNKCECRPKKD , report its measured relative binding affinity (ratio to native VEGF (8-109)).
Output: 1 ratio

Task: Given the entry LK-VRB-21s (ligand, human, UniProt P15692-4 27-135, looked up) APMAEGGGQNHHEVVKFEDVLRRSSCHPIETLVDIFQEYPDEIEYIFKPSCVPLMRCGGCCNSEGLECVPTEESNITMQIMRIKPHQGQHIGEMSFLQHNKCECRPKKD , report its measured relative binding affinity (ratio to native VEGF (8-109)).
Output: 3 ratio
